Target: T1, human TrkA receptor on the cell surface (human, UniProt P04629 33-796)
T1 construct: whole, on cells; PC12-hTrkA: high density; also called hTrkA; huTrkA
T1 sequence (P04629 33-796): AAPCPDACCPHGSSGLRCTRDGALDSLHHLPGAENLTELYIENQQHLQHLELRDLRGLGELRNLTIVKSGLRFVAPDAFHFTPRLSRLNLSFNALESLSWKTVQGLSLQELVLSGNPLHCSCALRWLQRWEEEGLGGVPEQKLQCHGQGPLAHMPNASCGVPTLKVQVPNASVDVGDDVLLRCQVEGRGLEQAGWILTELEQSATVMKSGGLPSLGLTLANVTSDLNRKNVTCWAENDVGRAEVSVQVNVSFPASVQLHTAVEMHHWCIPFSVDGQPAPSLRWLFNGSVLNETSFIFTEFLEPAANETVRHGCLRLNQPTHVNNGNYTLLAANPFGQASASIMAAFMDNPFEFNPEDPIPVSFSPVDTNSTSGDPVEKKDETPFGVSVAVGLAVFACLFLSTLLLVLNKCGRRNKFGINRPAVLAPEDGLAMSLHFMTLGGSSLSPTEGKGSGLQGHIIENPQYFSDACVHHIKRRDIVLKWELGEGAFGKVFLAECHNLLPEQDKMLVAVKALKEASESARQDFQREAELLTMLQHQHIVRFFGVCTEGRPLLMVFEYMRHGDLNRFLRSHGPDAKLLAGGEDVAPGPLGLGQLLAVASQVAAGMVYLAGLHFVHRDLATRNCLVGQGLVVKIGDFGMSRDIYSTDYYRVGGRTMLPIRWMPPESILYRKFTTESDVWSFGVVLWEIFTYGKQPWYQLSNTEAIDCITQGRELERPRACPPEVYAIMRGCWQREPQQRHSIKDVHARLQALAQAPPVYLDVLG
Experiment: flow cytometry on TF-1 cells, 4 µg/ml
In this section we review reported Fold Increase values for a set of binders.
// units = fold; emit number, no label

INSERT INTO assay_data (binder, readout_label, val) VALUES
  ('ChimMNAC13 (antibody, V domains shown, Corresponds to muMNACEP but has human constant regions instead of mouse constant regions; also called chimNINAC13; mVHEP/mVLEP) VH: EVKLMESGGGLVQPGGSLKLSCAASGFTFSTYTMSWARQTPEKRLEWVAYISKGGGSTYYPDTVKGRFTISRDNAKNTLYLQMSSLKSEDTALYYCARGAMYGNDFFYPMDYWGQQTSVTVSS VL: DIVLSQSPAIMSASLGEEITLTCSASSSVSYMHWYQQKSGTSPKLLITTTSNLASGVPSRFSGSGSGTFYSLTISSVEAEDAADYYCHQWSSYPWTFGGGTKLEIK', 'Fold Increase', 3.2);

# next binder below
Query: Supply recorded Fold Increase for BXhVH5VL5 (antibody, human IgG1, V domains shown, Human IgG1 constant regions (IgG1 expression vectors); COS-7 supernatant; also called hVH5/hVL5) VH: EVKLLESGGGLVQPGGSLRLSCAASGFTFSTYTMSWVRQTPGKRLEWVAYISKGGGSTYYPDTVKGRFTISRDNSKNTLYLQMNSLRAEDTAVYYCARGAMYGNDFFYPMDYWGQGTTVTVSS VL: QIVLTQSPATLSLSPGERATLSCSASSSVSYMHWYQQKPGQSPRLLIYTTSNLASGIPSRFSGSGSGTDYTLTISSLEPEDAADYYCHQWSSYPWTFGQGTKLEIK here.
Result: 2.4
